- System: SIV integrase G118R/A122T (SIV IN RTV pseudovirus)
- Type: cell-based
- measurement.parameters: G118R/A122T SIV integrase mutant
Can you tell me fold-change relative to wild type integrase for the items I'm about to list?

Form field: reported fold-change relative to wild type integrase of Cc1nnc(C(=O)NC(C)(C)c2nc(C(=O)NCc3ccc(F)cc3)c(O)c(=O)n2C)o1
> 345 fold

Field entry: C[C@H]1CO[C@@H]2Cn3cc(C(=O)NCc4ccc(F)cc4F)c(=O)c(O)c3C(=O)N12
> 840 fold

Field entry: C[C@@H]1CCO[C@H]2Cn3cc(C(=O)NCc4ccc(F)cc4F)c(=O)c(O)c3C(=O)N12
>1000 (>1000) fold

Field entry: O=C1Nc2ccc(Cl)cc2[C@@](C#CC2CC2)(C(F)(F)F)O1
1.1 fold

Field entry: COc1cc2c(cc1Cc1cccc(Cl)c1F)c(=O)c(C(=O)O)cn2[C@H](CO)C(C)C
> 807 fold

Field entry: O=C(NCc1c(F)cc(F)cc1F)c1cn2c(c(O)c1=O)C(=O)N1[C@H]3CC[C@H](C3)O[C@@H]1C2
>1000 (>1000) fold

###

- Test system: SIV integrase E92Q/G140R (SIV IN RTV pseudovirus)
- Assay type: cell-based
- measurement.parameters: E92Q/G140R SIV integrase mutant
readout.type: fold-change relative to wild type integrase

Form field: reported fold-change relative to wild type integrase of O=C(NCc1c(F)cc(F)cc1F)c1cn2c(c(O)c1=O)C(=O)N1[C@H]3CC[C@H](C3)O[C@@H]1C2
>1000 (>1000) fold

Field entry: C[C@H]1CO[C@@H]2Cn3cc(C(=O)NCc4ccc(F)cc4F)c(=O)c(O)c3C(=O)N12
> 840 fold

Field entry: C[C@@H]1CCO[C@H]2Cn3cc(C(=O)NCc4ccc(F)cc4F)c(=O)c(O)c3C(=O)N12
>1000 (>1000) fold

Field entry: COc1cc2c(cc1Cc1cccc(Cl)c1F)c(=O)c(C(=O)O)cn2[C@H](CO)C(C)C
> 807 fold

Field entry: Cc1nnc(C(=O)NC(C)(C)c2nc(C(=O)NCc3ccc(F)cc3)c(O)c(=O)n2C)o1
> 345 fold

Field entry: O=C1Nc2ccc(Cl)cc2[C@@](C#CC2CC2)(C(F)(F)F)O1
1.9 fold

###

Can you tell me fold-change relative to wild type integrase for the items I'm about to list?
- Tested on: SIV integrase I72T (SIV IN RTV pseudovirus)
- assay.procedure: organism not typed
- Format: cell-based
- measurement.parameters: {}
# output: bare number, implied unit fold

So what fold-change relative to wild type integrase did COc1cc2c(cc1Cc1cccc(Cl)c1F)c(=O)c(C(=O)O)cn2[C@H](CO)C(C)C [EVG, elvitegravir] get with SIV integrase I72T (SIV IN RTV pseudovirus)?
0.9

Field entry: Cc1nnc(C(=O)NC(C)(C)c2nc(C(=O)NCc3ccc(F)cc3)c(O)c(=O)n2C)o1 [RAL, raltegravir]
0.9

Field entry: C[C@@H]1CCO[C@H]2Cn3cc(C(=O)NCc4ccc(F)cc4F)c(=O)c(O)c3C(=O)N12 [DTG, dolutegravir]
1.1

Field entry: C[C@H]1CO[C@@H]2Cn3cc(C(=O)NCc4ccc(F)cc4F)c(=O)c(O)c3C(=O)N12 [CAB, cabotegravir]
0.8

Field entry: O=C1Nc2ccc(Cl)cc2[C@@](C#CC2CC2)(C(F)(F)F)O1 [EFV, efavirenz]
0.9

Field entry: O=C(NCc1c(F)cc(F)cc1F)c1cn2c(c(O)c1=O)C(=O)N1[C@H]3CC[C@H](C3)O[C@@H]1C2 [BIC, bictegravir]
1.5
